# denaturant midpoint (higher = more stable) per record follows
B1: PTS system mannose-specific EIIAB component, P69797 (parent)
chain: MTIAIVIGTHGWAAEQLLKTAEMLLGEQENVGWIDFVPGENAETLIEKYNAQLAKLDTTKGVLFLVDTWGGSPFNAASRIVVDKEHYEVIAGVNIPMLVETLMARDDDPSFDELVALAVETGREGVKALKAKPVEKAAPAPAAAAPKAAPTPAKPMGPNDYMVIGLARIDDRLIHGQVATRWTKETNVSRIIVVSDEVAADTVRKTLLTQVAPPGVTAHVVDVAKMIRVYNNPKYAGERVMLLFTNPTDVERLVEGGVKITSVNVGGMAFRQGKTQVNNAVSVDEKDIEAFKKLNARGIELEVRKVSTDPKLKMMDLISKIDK

Variants of: B1
Details: Escherichia coli (strain K12); pH 7.4; 22 °C; GdnHCl; Fluorescence; Sodium phosphate 20 mM; reversible: yes; structure 1PDO; whole UniProt chain shown
Express your answer in M, writing the number without its unit.

W12F W69F ... 2.1
W69F ... 2.1

Quick note, denaturant midpoint (higher = more stable) for W12F landed at 2.6

Quick note, denaturant midpoint (higher = more stable) for W12F W33F landed at 2.2

Quick note, denaturant midpoint (higher = more stable) for W33F W69F landed at 1.8

Quick note, denaturant midpoint (higher = more stable) for W33F landed at 2.2
